target: Focal adhesion kinase 1 (Homo sapiens) (UniProt Q05397); assay: small-molecule microarray binders of FAK, primary screen, biochemical, 635/667 nm fluorescence, BSA, DTT (AID 1130); conditions: PTK2 binding, 635 nm fluorescence, higher = more signal;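 note: composite of spot emission at 667 nm and signal to noise over triplicate slides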
Sequence (Q05397 whole entry, looked up): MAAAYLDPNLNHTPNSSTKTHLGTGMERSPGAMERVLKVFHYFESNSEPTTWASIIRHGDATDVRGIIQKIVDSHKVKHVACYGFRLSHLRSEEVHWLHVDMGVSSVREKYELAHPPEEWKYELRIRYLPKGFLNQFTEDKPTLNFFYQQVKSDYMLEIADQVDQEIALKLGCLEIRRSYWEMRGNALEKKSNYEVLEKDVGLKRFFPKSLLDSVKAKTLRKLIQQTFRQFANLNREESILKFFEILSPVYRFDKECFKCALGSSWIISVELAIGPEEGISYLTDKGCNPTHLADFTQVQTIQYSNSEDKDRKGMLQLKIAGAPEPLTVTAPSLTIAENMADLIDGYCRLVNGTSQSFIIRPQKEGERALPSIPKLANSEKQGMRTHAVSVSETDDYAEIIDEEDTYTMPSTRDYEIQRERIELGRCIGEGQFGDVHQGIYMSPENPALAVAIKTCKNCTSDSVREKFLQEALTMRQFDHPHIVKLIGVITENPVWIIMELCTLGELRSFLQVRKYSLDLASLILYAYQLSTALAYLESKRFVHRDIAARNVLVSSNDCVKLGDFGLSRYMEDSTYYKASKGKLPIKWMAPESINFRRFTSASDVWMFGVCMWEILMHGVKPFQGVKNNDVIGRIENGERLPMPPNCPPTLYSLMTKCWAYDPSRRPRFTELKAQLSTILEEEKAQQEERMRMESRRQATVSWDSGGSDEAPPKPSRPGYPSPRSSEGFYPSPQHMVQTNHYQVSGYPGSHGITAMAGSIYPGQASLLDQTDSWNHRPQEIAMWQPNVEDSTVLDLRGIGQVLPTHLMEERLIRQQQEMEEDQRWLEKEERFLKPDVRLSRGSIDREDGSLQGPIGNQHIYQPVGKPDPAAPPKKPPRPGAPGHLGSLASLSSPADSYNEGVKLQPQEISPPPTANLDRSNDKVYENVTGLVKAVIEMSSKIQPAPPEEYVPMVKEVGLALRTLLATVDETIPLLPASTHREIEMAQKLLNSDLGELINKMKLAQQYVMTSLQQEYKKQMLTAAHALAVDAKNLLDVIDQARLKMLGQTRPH
Please note: Satisfied applies when composite z-score is 0.5 or greater, and Not satisfied applies otherwise.

{"molecule": "COc1ccc(C(=O)Nc2cccc(CN3C(=O)[C@]4(O[C@H](CCn5cc([C@H](O)c6ccccc6)nn5)[C@@H]([Si](C)(C)c5ccc(OC)cc5)[C@@H]4C)c4ccccc43)c2)cc1", "target_entity": "Focal adhesion kinase 1 (Homo sapiens) (UniProt Q05397)", "label_value": "Not satisfied"}
{"molecule": "COc1ccc(C(O)C2C=CC3C(=O)N(c4ccccc4)C(=O)C3N2Nc2ccccc2F)cc1 (stereo not drawn)", "target_entity": "Focal adhesion kinase 1 (Homo sapiens) (UniProt Q05397)", "label_value": "Satisfied"}
{"molecule": "COc1ccc(C(O)C2C=CC3C(=O)N(c4ccccc4)C(=O)C3N2Nc2ccccc2)cc1 (stereo not drawn)", "target_entity": "Focal adhesion kinase 1 (Homo sapiens) (UniProt Q05397)", "label_value": "Satisfied"}
{"molecule": "O=C1[C@@]23C=C(Br)[C@H](C[C@@H]2COC3)[C@@]12CO2", "target_entity": "Focal adhesion kinase 1 (Homo sapiens) (UniProt Q05397)", "label_value": "Not satisfied"}
{"molecule": "C=C[C@@H](OC)[C@H](OC(=O)Nc1ccc(SC)cc1)c1ccc(OCCO)cc1", "target_entity": "Focal adhesion kinase 1 (Homo sapiens) (UniProt Q05397)", "label_value": "Not satisfied"}

Ask | I'd appreciate it if you could say whether O=C1NC(=O)C2C1C=CC(C(O)c1ccccn1)N2Nc1ccc(Cl)cc1Cl (stereo not drawn) has composite z-score at least equal to 0.5.
Reply | Not satisfied

Ask | I'd appreciate it if you could say whether Cc1nc2cc(Br)ccc2c(=O)n1Cc1cccc(O)c1 has composite z-score at least equal to 0.5.
Reply | Satisfied

====

test: small-molecule microarray binders of probe aDKK1, primary screen, biochemical, biotinylated probe, 635/667 nm fluorescence (AID 1099); conditions: higher = more signal;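 note: score merges 667nm spot fluorescence with signal to noise across triplicate slides; reference of the scale not given here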
What composite z-score was measured for each of the following?
One number for each entry.

See these solved cases before continuing.
{"compound": "[N-]=[N+]=NC[C@H](Cc1ccccc1)NC(=O)c1ccccc1", "composite z-score": -0.124}
{"compound": "COCC1C2CC[C@H]3C(OCc4ccc(OC)cc4)OC[C@]4(C)[C@H]3C2=C(CN4C(=O)OC(C)(C)C)[C@H](C)C1COC (some centres not stated)", "composite z-score": 0.319}
{"compound": "CC(C)C[C@@H]1NC(=O)CNC(=O)[C@@]23C(=O)N[C@@H](Cc4ccccc4)C2[C@H](C)[C@@]2(C)O[C@H]2C3/C=C/C/C=C\\CNC1=O (some centres not stated)", "composite z-score": -0.212}
{"compound": "COCCOC(=O)N1C(=O)[C@@]2(c3cc(C#CCCO)ccc31)[C@H](C(=O)N1CCCCCCC1)[C@H]1C(=O)O[C@H](c3ccccc3)[C@H](c3ccccc3)N1[C@@H]2c1ccccc1OCCO", "composite z-score": 2.67}
{"compound": "CN(C)C(=O)[C@@]1(CCC(=O)OC(C)(C)C)N=C(c2ccc(OCCCO)cc2)O[C@H]1c1ccccc1CN=[N+]=[N-]", "composite z-score": 0.473}

For every record below, what is its composite z-score?
1. C=C(/C(=C/C[C@H](OC(=O)c1ccncc1)c1ccccc1OCCO)c1cnc2ccccc2c1)C(C)C
2. COCCOC(=O)N1C(=O)[C@@]2(c3cc(C#CCNC(N)=O)ccc31)[C@H](c1ccc(O)cc1)N1[C@H](c3ccccc3)[C@H](c3ccccc3)OC(=O)[C@H]1[C@@H]2C(N)=O

Reply |
[-0.117, -0.224]

====

molecular target: Torsin-1A (Homo sapiens); experiment: torsin A binders from cell lysate, primary screen, small-molecule microarray, wild-type, 635/667 nm (AID 1149); conditions: COS7 hTOR1A-WT lysate, 635 nm fluorescence, higher = more signal
property_name: composite z-score
Answers are plain numbers.

See these solved cases before continuing.
{"molecule": "CC(C)C[C@@H]1NC(=O)CNC(=O)[C@@]23C(=O)N[C@@H](Cc4ccccc4)C2[C@H](C)[C@@]2(C)O[C@H]2C3/C=C/C/C=C\\CNC1=O (some centres undefined)", "composite z-score": 1.09}
{"molecule": "COCCOC(=O)N1C(=O)[C@@]2(c3cc(C#CCNC(N)=O)ccc31)[C@H](c1ccc(OCCO)cc1)N1[C@H](c3ccccc3)[C@H](c3ccccc3)OC(=O)[C@H]1[C@@H]2C(=O)NC[C@H](O)c1ccccc1", "composite z-score": 0.367}
{"molecule": "C=C(/C(=C/C[C@@H](OC(C)=O)c1ccc(CO)o1)c1cc(C(=O)OC)ccc1OC)C(C)C", "composite z-score": 0.431}
{"molecule": "CCOC(=O)C1=CC[C@@H](c2ccccc2)N(S(=O)(=O)c2ccc(C)cc2)[C@H]1c1cccc(OC)c1", "composite z-score": 0.4}
{"molecule": "COCCOC(=O)N1C(=O)[C@@]2(c3cc(C#CCC(C(=O)OC)C(=O)OC)ccc31)[C@H](C(=O)NC[C@H](O)c1ccccc1)[C@H]1C(=O)O[C@H](c3ccccc3)[C@H](c3ccccc3)N1[C@@H]2c1ccc(O)cc1", "composite z-score": -0.431}

For every record below, what is its composite z-score?
1. COC(=O)[C@@]1(Cc2ccccc2CN=[N+]=[N-])N=C(c2ccc(OCCCO)cc2)O[C@H]1c1ccccc1CN=[N+]=[N-]
2. CCCCCN1CC=CC23O[C@@H]4C=CCOC(=O)[C@@H]4[C@H]2C(=O)N(CCO)[C@@H]3C1=O (some centres undefined)
3. [N-]=[N+]=NCc1ccccc1[C@H]1OC(c2ccc(OCCCO)cc2)=N[C@@]1(CCS(=O)(=O)c1ccccc1)C(=O)NCc1ccccc1
4. COC(=O)C1=CC(CCCO)=CC(C)N(Cc2cccc(OC(F)(F)F)c2)C=C1C(=O)OC (centres undefined)
5. CC(C)CNC(=O)[C@@]1(C)c2ccccc2C(=O)N(Cc2cc(C(F)(F)F)cc(C(F)(F)F)c2)[C@H]1c1ccc(CO)cc1
6. CS(=O)(=O)CCOC(=O)C1=CC(CCCO)=CC(C2CC2)N(Cc2cccc(OC(F)(F)F)c2)C=C1C(=O)OCCS(C)(=O)=O (centres undefined)
7. CCN(CC)c1ccc(N2CC=CC34O[C@@H]5C=CCCOC(=O)C5[C@H]3C(=O)N(CCO)[C@@H]4C2=O)cc1 (some centres undefined)

Reply |
-2.13
1.17
0.61
-0.148
-0.918
1.29
-0.894

For every record below, what is its composite z-score?
1. CN(C)CCCCNC(=O)[C@H]1C[C@H]2C(=O)N[C@@H](CCCC[N+](C)(C)C)C(=O)N2[C@H]1c1ccc(O)cc1
2. CC(=O)NCCCC[C@@H]1NC(=O)[C@@H]2C[C@H](C(=O)NCCCCCCN)[C@H](c3cccc(OCCO)c3)N2C1=O

Reply |
1. 0.278
2. 0.475

====

What z-score was measured for each of the following?
test: E. coli acrAB mutant growth effects, primary screen, E. coli filamentation inducers, strain DRC39, OD650, 48 h (AID 1179);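 note: screen aims at cell division blockers that make cells filament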; conditions: E. coli DRC39 delta-acrAB growth, higher = more signal, called active from +8 up or from −8 down
Numbers only.

{"query_smiles": "CC(C)C(=C=CC[C@@H](O)c1cccc(OCCO)c1)C[C@@H](O)c1ccccn1", "z-score": -0.158}
{"query_smiles": "CO[C@H]1O[C@H](CO)[C@@H](OC(=O)c2ccc(Br)cc2)[C@@H]2OC(=O)[C@H](Cc3ccccc3)C/C=C/C[C@@H](Cc3ccccc3)C(=O)O[C@@H]12", "z-score": 2.16}
{"query_smiles": "COc1cccc(/C=C(\\C#N)C(=O)Nc2c(C)n(C)n(-c3ccccc3)c2=O)c1", "z-score": 1.15}

Ask | # input molecule: CC(C)C[C@@H]1NC(=O)[C@H]2C[C@@H](C(=O)NCCCCCN)[C@@H](c3cccc(OCCO)c3)N2C1=O ; wanted: its z-score
Reply | 1.61

====

What composite z-score was measured for each of the following?
test: small-molecule microarray binders of probe aCHRDL2, primary screen, biochemical, biotinylated probe, 635/667 nm fluorescence (AID 1100); settings: higher = more signal
Numbers only.

{"compound": "O=C1C2C=CC(C(O)c3ccc4c(c3)OCO4)N(Nc3ccccc3)C2C(=O)N1c1ccccc1 (centres undefined)", "composite z-score": 1.09}
{"compound": "CC=CC(O)C1C=CC2C(=O)NC(=O)C2N1Nc1ccccn1 (centres undefined)", "composite z-score": -0.185}

For every record below, what is its composite z-score?
1. C=C(COC)/C(=C/C[C@@H](OC(C)=O)c1ccc(CO)o1)c1cc(C(=O)OC)ccc1OC
2. C=CCNC(=O)[C@@H]1[C@H]2C(=O)O[C@H](c3ccccc3)[C@H](c3ccccc3)N2[C@H](c2ccc(O)cc2)[C@@]12C(=O)Nc1ccc(C#CCC(C(=O)OC)C(=O)OC)cc12

Reply |
-0.0929
0.181
